B1: CAMK2A (parent)
chain: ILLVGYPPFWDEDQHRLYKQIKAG

variants of: B1; assay: protein stability index of a GFP-peptide fusion (GPS, HEK-293T) (PSI 1-6); higher = more stable; conditions: c terminus: a fixed tail appended;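 note: lentivirally expressed fusions sorted by FACS into six bins by GFP to DsRed ratio, PSI derived from sequencing read proportions per bin multiplied by bin number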
Collected protein stability index values appear next to each entry.

Below are worked cases with known answers.
ILLVGYPPFWDEDQHRLYKCIKAG [Q20C] = 1.94
IPLVGYPPFWDEDQHRLYKQIKAG [L2P] = 1.86

**Q:** // fetch protein stability index given entry ILWVGYPPFWDEDQHRLYKQIKAG [L3W]
**A:** 2.4

**Q:** Provide one value: measured protein stability index of ILLVGYPPFWDEDQHRLPKQIKAG [Y18P]
**A:** 1.71

**Q:** State its protein stability index: ILLVGYPPFWDEDQHTLYKQIKAG [R16T]
**A:** 1.29

**Q:** Please report the measured protein stability index for ILLVGYPPFWDEDQHRLYKQIKLG [A23L]
**A:** 2.11

**Q:** Give me measured protein stability index, please, for this variant: ILLVGYPPFWDEDQHRLYKQIPAG [K22P]
**A:** 2.74

**Q:** Indicate the recorded protein stability index value for this variant: ILLVGYPPFWDEDQHRLYKKIKAG [Q20K]
**A:** 1.56

**Q:** Find the measured protein stability index of ILLVGYPPFWDEDQHRLYKQIQAG [K22Q] and report it.
**A:** 3.46

**Q:** Supply recorded protein stability index for ILLVGYPPFWDEDTHRLYKQIKAG [Q14T] here.
**A:** 2.98

**Q:** Name the recorded protein stability index of the item ILQVGYPPFWDEDQHRLYKQIKAG [L3Q] in your answer.
**A:** 1.79

**Q:** Identify protein stability index associated with the variant ILLVGYPPFWDEDQHRLYKNIKAG [Q20N]
**A:** 1.83

**Q:** Using known records, supply protein stability index for ILLVGYPPFWDEDQHRLYKQMKAG [I21M]
**A:** 1.72

Reference source: the supplement of paper PMC10567573
